Entry source: ChEMBL document CHEMBL1961873

target: Casein kinase I isoform gamma-2 (Homo sapiens); details: at 0.1 µM;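 note: values are mean inhibition figures reported as part of the GSK PKIS dataset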
assay.readout: inhibition (%)
Dear colleague, please return just the value in %, with no unit written.

Nc1ncnc2occ(-c3ccc(NC(=O)Nc4cc(C(F)(F)F)cc(C(F)(F)F)c4)cc3)c12 ... 0.5

Data request: // returns reported inhibition for input NCc1ccc(-c2nc(-c3ccc(Cl)c(O)c3)c(-c3ccncc3)[nH]2)cc1
Data returned: 0.27

Data request: # query: inhibition of entry CCn1c(-c2nonc2N)nc2cncc(C(=O)N3CCNCC3)c21
Data returned: 4.43

Data request: Which inhibition value belongs to COc1cc(C=NNc2ncnc3c2cnn3-c2ccccc2)ccc1O ?
Data returned: 2.04

Data request: Any idea what inhibition was measured for CS(=O)(=O)CCNCc1ccc(-c2ccc3ncnc(Nc4ccc(OCc5cccc(F)c5)c(C(F)(F)F)c4)c3c2)o1 ?
Data returned: 2.69

Data request: Returns the measured inhibition for the input molecule. Input: CC(=O)Nc1cccc(C#Cc2cncnc2Nc2ccc(OCc3cccc(F)c3)c(Cl)c2)n1
Data returned: -0.28

Data request: Which inhibition is listed for Nc1nc(-c2ccc3c(c2)C(=Cc2cc(Br)c(O)c(Br)c2)C(=O)N3)cs1 ?
Data returned: -1.3

Data request: Which value of inhibition has been reported for CCn1c(-c2nonc2N)nc2c(C#CC(C)(C)O)nc(OC[C@@H](N)c3ccccc3)cc21 in the records?
Data returned: -1.05

Data request: Record request: inhibition value, item O=C1NC(=O)C(c2cccc(Cl)c2)=C1Nc1ccc(O)c(Cl)c1
Data returned: 0.09
